- Tested on: SN12C renal
- test: NCI tumour cell line growth inhibition, 48 h
Listing: TGI of selected compounds
I only need the number, in µM, no unit after it.

Example entries and their recorded answers appear below.
{"compound": "CCCCCC(O)C(O)CCC[C@H](O)[C@H]1CC[C@H]([C@H]2CC[C@H]([C@H](O)CCCCCCCCCCCCC3=C[C@H](C)OC3=O)O2)O1 (some centres undefined)", "unit_annotation": "µM", "TGI": 66.6}
{"compound": "CN(C)CCCn1c(=O)c2ccccc2c2cnc3[nH]ccc3c21", "unit_annotation": "µM", "TGI": 14.6}
{"compound": "O=C(c1ccc(Cl)cc1)N1CCN=C1c1cc2ccccc2c2ccccc12", "unit_annotation": "µM", "TGI": 30.6}

Note to self: TGI recorded for COc1cccc(C2c3cc4c(cc3OC(Nc3ccccc3)C2C)OCO4)c1O (centres undefined) was 27.8

Note to self: TGI recorded for `ClCc1ccccc1Cn1cnc2ncnc(Cl)c21` was 8.5

* * *

- Tested on: LOX IMVI melanoma
- test: NCI tumour cell line growth inhibition, 48 h
outcome_measure: TGI

Example entries and their recorded answers appear below.
{"compound": "CC(=O)OC12C=C(C)C(C(C)C1)C1C(=O)N(CCN3CCCCC3)C(=O)C12 (centres undefined)", "outcome_measure": "TGI", "experimental_result": "> 50 µM"}
{"compound": "Clc1cc(Cl)ncn1", "outcome_measure": "TGI", "experimental_result": "> 100 µM"}

Note to self: TGI recorded for `Cc1ccc([N+](=O)[O-])c2c(NCCNC(=O)c3cc(C(=O)NCCNc4ccnc5c(C)ccc([N+](=O)[O-])c45)n(C)n3)ccnc12` was > 64.7 µM

Note to self: TGI recorded for `C1CCCCc2nc3c(nc2CCC1)c1nc2c(nc1c1nc4c(nc31)CCCCCCCC4)CCCCCCCC2` was > 100 µM

* * *

- System: EKVX NSCLC
- test: NCI tumour cell line growth inhibition, 48 h
outcome_measure: TGI

Example entries and their recorded answers appear below.
{"compound": "Cc1c(C(=O)O)n(C)c(=O)n(C)c1=O", "TGI": "> 100 µM"}
{"compound": "O=C1/C(=C/c2ccc(F)cc2)CN(C(=O)CCN2CCC(=NO)CC2)C/C1=C\\c1ccc(F)cc1", "TGI": "5.9 µM"}

// compound `CCOC(=O)/C(=C/c1cccc(Cl)c1)N(CC)CC` , assay EKVX NSCLC, TGI value: > 100 µM

* * *

- Tested on: SNB-19 CNS
- test: NCI tumour cell line growth inhibition, 48 h; in the data active = GI50 below about 0.43 µM; inactive = the rest
Please state which outcome applies, choosing from Y (active), N (inactive)

Solved entries:
{"compound": "C#C[C@@]1(O)[C@@H](CO)O[C@@H](n2cc(I)c3c(N)ncnc32)[C@@H]1O", "target_desc": "SNB-19 CNS", "class_assignment": "Y"}
{"compound": "CC(=O)OC12C=C(C)C(C(C)C1)C1C(=O)N(CCN3CCCCC3)C(=O)C12 (stereo not drawn)", "target_desc": "SNB-19 CNS", "class_assignment": "N"}

Continue with the compound presented below.
## Task For `O=C(Nc1ccccc1I(=O)=O)C1CCCCC1` , what call appears in the results of this test?
## Result N

* * *

Listing: TGI of selected molecules
- Tested on: ACHN renal
- test: NCI tumour cell line growth inhibition, 48 h

Note to self: TGI recorded for `OC(NN=C1CCCC1)(C(F)(F)Cl)C(F)(F)Cl` was > 10 µM

Note to self: TGI recorded for Cc1ccccc1NC(=O)CC(=O)NNC(Sc1ccccc1)c1cc(N=Nc2ccc(Br)cc2)ccc1O (stereo not drawn) was > 10 µM

Note to self: TGI recorded for `CCNc1cc2c3c(c1)CCN3CCC2` was > 10 µM

Data provenance: PubChem BioAssay (NCI)
